Each item that follows carries a reported inhibition of growth at 50 µM.
System: Trichomonas vaginalis
Test: Antimicrobial activity against Trichomonas vaginalis G3 assessed as growth inhibition at 50 uM after 24 hrs by hemocytometry
Format: functional
Details: G3, 24 h, read-out: GI

{"molecule": "O=C1C(=O)N(CC(CO)N[C@@H]2C(=O)N(c3ccc(Cl)cc3)[C@@H]2/C=C/c2ccccc2)c2ccc(F)cc21 (some centres not stated)", "unit.abbreviation": "%", "inhibition of growth at 50 µM": 77.2}
{"molecule": "Cc1ccc(N2C(=O)[C@@H](NC(CO)CN3C(=O)C(=O)c4cc(Cl)ccc43)[C@H]2/C=C/c2ccccc2)cc1 (relative stereo)", "unit.abbreviation": "%", "inhibition of growth at 50 µM": 59.8}
{"molecule": "Cc1ccc(N2C(=O)[C@@H](NC(CO)CN3C(=O)C(=O)c4cc(C)ccc43)[C@H]2/C=C/c2ccccc2)cc1 (relative stereo)", "unit.abbreviation": "%", "inhibition of growth at 50 µM": 56}
{"molecule": "Cc1ccc(N2C(=O)[C@@H](NC(CO)CN3C(=O)C(=O)c4ccccc43)[C@H]2/C=C/c2ccccc2)cc1 (relative stereo)", "unit.abbreviation": "%", "inhibition of growth at 50 µM": 95.3}
{"molecule": "Cc1ccc(N2C(=O)[C@@H](NC(CO)CN3C(=O)C(=O)c4cc(F)ccc43)[C@H]2/C=C/c2ccccc2)cc1 (relative stereo)", "unit.abbreviation": "%", "inhibition of growth at 50 µM": 71.9}
{"molecule": "O=C1C(=O)N(CC(CO)N[C@@H]2C(=O)N(c3ccc(Cl)cc3)[C@@H]2/C=C/c2ccccc2)c2ccccc21 (some centres not stated)", "unit.abbreviation": "%", "inhibition of growth at 50 µM": 76.2}
{"molecule": "O=C1C(=O)N(CC(CO)N[C@@H]2C(=O)N(C3CCCCC3)[C@@H]2/C=C/c2ccccc2)c2ccc(F)cc21 (relative stereo)", "unit.abbreviation": "%", "inhibition of growth at 50 µM": 64.6}
{"molecule": "O=C1C(=O)N(CC(CO)N[C@@H]2C(=O)N(C3CCCCC3)[C@@H]2/C=C/c2ccccc2)c2ccc(Cl)cc21 (relative stereo)", "unit.abbreviation": "%", "inhibition of growth at 50 µM": 61.8}
{"molecule": "Cc1ccc2c(c1)C(=O)C(=O)N2CC(CO)N[C@@H]1C(=O)N(C2CCCCC2)[C@@H]1/C=C/c1ccccc1 (relative stereo)", "unit.abbreviation": "%", "inhibition of growth at 50 µM": 70.8}
{"molecule": "O=C1C(=O)N(CC(CO)N[C@@H]2C(=O)N(c3ccc(Cl)cc3)[C@@H]2/C=C/c2ccccc2)c2ccc(Cl)cc21 (relative stereo)", "unit.abbreviation": "%", "inhibition of growth at 50 µM": 97.1}
{"molecule": "O=C1C(=O)N(CC(CO)N[C@@H]2C(=O)N(C3CCCCC3)[C@@H]2/C=C/c2ccccc2)c2ccccc21 (relative stereo)", "unit.abbreviation": "%", "inhibition of growth at 50 µM": 93.6}
{"molecule": "Cc1ccc2c(c1)C(=O)C(=O)N2CC(CO)N[C@@H]1C(=O)N(c2ccc(Cl)cc2)[C@@H]1/C=C/c1ccccc1 (some centres not stated)", "unit.abbreviation": "%", "inhibition of growth at 50 µM": 97.6}

Data origin, for the record: ChEMBL document CHEMBL3217653
